- STUDY TARGET: T1, PC2, P16519
- T1 chain: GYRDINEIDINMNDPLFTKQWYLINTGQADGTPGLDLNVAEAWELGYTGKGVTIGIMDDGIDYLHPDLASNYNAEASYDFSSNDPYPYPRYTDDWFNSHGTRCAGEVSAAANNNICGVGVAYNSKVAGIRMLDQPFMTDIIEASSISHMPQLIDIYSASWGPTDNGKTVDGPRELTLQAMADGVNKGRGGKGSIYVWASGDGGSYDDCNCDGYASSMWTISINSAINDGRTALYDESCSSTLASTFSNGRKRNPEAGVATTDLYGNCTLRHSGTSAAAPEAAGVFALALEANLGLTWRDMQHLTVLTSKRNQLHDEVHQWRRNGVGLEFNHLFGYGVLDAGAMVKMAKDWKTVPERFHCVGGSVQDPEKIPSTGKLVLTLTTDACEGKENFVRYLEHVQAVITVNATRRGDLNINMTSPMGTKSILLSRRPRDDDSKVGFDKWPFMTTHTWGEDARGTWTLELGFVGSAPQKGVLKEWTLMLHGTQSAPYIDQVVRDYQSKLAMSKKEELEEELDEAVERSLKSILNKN
- STUDY CONDITIONS: modification not given
REPORTED ENDPOINT: Ki (µM)
Please give a number only; it is taken to be in µM.

Task item: Retrieve Ki measured for Ac-HHKRRR-NH2 [Ac-HHKRRR-NH2] and print it.
Reply: 235
